test: folding stability dG unfold from chymotrypsin proteolysis; higher = more stable

>  <sequence.content>
SAGGSAGGSAGYPPVPPAVVQAVVDELPRLGYTPKAVVVGEGPDLPFVLVVADDKVLLVRGSAGGSAGGSAG [r3_395_TrMRF]

>  <folding stability dG unfold, kcal/mol>
0.524

$$$$
>  <sequence.content>
SAGGSAGGSAGGGELKELLKKNPGPLLLERPENTVSLILYDPKTGTYTVLTFSPTEPIPLSAGGSAGGSAGG [r7_84_JUSTAS]

>  <folding stability dG unfold, kcal/mol>
1.69

$$$$
>  <sequence.content>
SAGGSAGGSKKKLTLTLKVEYVDEETGEKRTVTLTITAESEEEAKAALEELAKKLPPGARIEVSAGGSAGGS [r20_211_TrROS_Hall]

>  <folding stability dG unfold, kcal/mol>
4.44

$$$$
>  <sequence.content>
SAGGDPLVLEFDGVTVVYDPKTKTLVVFAPSSEVERLVKALGPKFEPLEIFELEDGSVVMLVRIKPESAGGS [r8_415_TrMRF]

>  <folding stability dG unfold, kcal/mol>
4.53

$$$$
>  <sequence.content>
SAGGSAGGSAGSLELEFEFPKDTPLDKIIEELKKLIPEKDPKIEILKVEEKEGGLWIKARVSSAGGSAGGSA [r18_360_TrMRF]

>  <folding stability dG unfold, kcal/mol>
3.11

$$$$
>  <sequence.content>
QRTVYIPIRGMPPDQMVDMIRMALRQAREKGHPNRTIRIWMPGPPEQRERARRYIKELADEPGLNVTIEGWS [r1_387_TrROS]

>  <folding stability dG unfold, kcal/mol>
1.85

$$$$
>  <sequence.content>
SAGGSAGGSPDAPPPPVNVVVPIPESELLSEEELPGGTTLRTYRLPDGTEITVRTAPDGRVTVDSAGGSAGG [r6_119_JUSTAS]

>  <folding stability dG unfold, kcal/mol>
3.86

$$$$
>  <sequence.content>
SAGGSAGGSMKVEITKVEPETGPNGRPYYRVEVKVIGEDGSPYTFTFYFEKPSDIENAKISLDSAGGSAGGS [r20_130_TrMRF]

>  <folding stability dG unfold, kcal/mol>
3.91

$$$$
>  <sequence.content>
SETYKVTVLAEVRIYSRSPDGTWKPIGVFPVEATVEYPAEYREEAERKAVEKVEEEVRKFAESHGVVVEASA [r9_356_TrMRF]

>  <folding stability dG unfold, kcal/mol>
2.31

$$$$
>  <sequence.content>
SAGGMLLKLPLSSVEIPPDASEEEIEEAKRKLAKPKVVKVTEEVLIEENGIVKKVKVTKYVSLSVEESAGGS [r16_387_JUSTAS]

>  <folding stability dG unfold, kcal/mol>
0.56

$$$$
>  <sequence.content>
SMLPLLPPRRLLIEVVFPLPEDATPEQLELAERAAEALADVLEALGFKDVRVLVEPTDPGDVLILAEVEASA [r9_865_TrMRF]

>  <folding stability dG unfold, kcal/mol>
1.97

$$$$
>  <sequence.content>
SAGGSAGGSAGGMEVKTVEDPKGLTVEVSPPVGTATTVYGDETVTHTLSPSATVALEPASAGGSAGGSAGGS [r10_637_JUSTAS]

>  <folding stability dG unfold, kcal/mol>
0.435

$$$$
>  <sequence.content>
SAGGSAKITIEYDPETGTITIKVELTNEDNGKKVTKEYEIKVDGKLIRIKIDANTGEIVEIEVLPPSAGGSA [r2_331_TrROS_Hall]

>  <folding stability dG unfold, kcal/mol>
3.38

$$$$
>  <sequence.content>
SAGVVVERTVTRTVPKDSATKEKIIEEIKASMPGMKVKEVEVLSETPLPDGSIVVTVKLTIERPPDVLESAG [r5_682_JUSTAS]

>  <folding stability dG unfold, kcal/mol>
2.88

$$$$
